Tested on: UACC-257 melanoma
Assay Info: NCI tumour cell line growth inhibition, 48 h

{"Compound": "CN(C)c1ccc(/C=N/N=C(\\C#N)[S][Sn]([Cl])([c]2ccccc2)[c]2ccccc2)cc1", "TGI": "2.95 µM"}
{"Compound": "Cc1ccc2c(c1C)CC1(Cc3ccc(C)c(C)c3C1=O)C2=O (stereo unspecified)", "TGI": "> 100 µM"}
{"Compound": "CS(=O)(=O)CCC1CCC(=O)O1 (stereo unspecified)", "TGI": "> 100 µM"}
{"Compound": "O=C(O)CCC(NC(=O)c1ccc(Nc2nc3ccc(C(F)(F)F)cc3nc2C(=O)O)cc1)C(=O)O (stereo unspecified)", "TGI": "> 100 µM"}
{"Compound": "Cc1cccc(C)c1NC(=O)C(=O)CC(=O)c1sc(Nc2c(C)cccc2C)nc1C", "TGI": "> 100 µM"}
{"Compound": "CC(C)c1ccc2c(c1)CCC1C2CCCC1(C)NCc1ccccc1 (stereo unspecified)", "TGI": "6.13 µM"}

###

// TGI lookup, one value per entry
Test system: PC-3 prostate
Assay Info: NCI tumour cell line growth inhibition, 48 h

{"Molecule": "COC(=O)C1CC2CC1C1C2SC(F)(F)C1(F)F (stereo unspecified)", "Assayed System": "PC-3 prostate", "TGI": "> 100 µM"}
{"Molecule": "Cc1cn([C@H]2C[C@@H](N3C(=O)c4ccccc4C3=O)[C@@H](CO[Si](C)(C)C(C)(C)C)O2)c(=O)[nH]c1=O", "Assayed System": "PC-3 prostate", "TGI": "> 100 µM"}
{"Molecule": "CC(C)=CCC[C@@H](C)C1=C(N)C(O)=C(C)C(=O)C1=O", "Assayed System": "PC-3 prostate", "TGI": "> 75 µM"}
{"Molecule": "CC(C)(C)n1c(=O)n2c(-c3ccccc3)c(-c3ccccc3)n2c1=O", "Assayed System": "PC-3 prostate", "TGI": "> 100 µM"}
{"Molecule": "Cc1nc2ccc(N=Nc3c(C)noc3C)cc2[nH]1", "Assayed System": "PC-3 prostate", "TGI": "> 100 µM"}
{"Molecule": "NC1=C(c2nc(-c3ccccc3)cs2)C(c2ccco2)c2c(c3ccccc3oc2=O)O1 (stereo unspecified)", "Assayed System": "PC-3 prostate", "TGI": "> 100 µM"}
{"Molecule": "Nc1ccc2c(=S)c3ccccc3[nH]c2c1", "Assayed System": "PC-3 prostate", "TGI": "> 100 µM"}
{"Molecule": "CN1CCN(C(=O)/C=C/c2ccc([N+](=O)[O-])o2)CC1", "Assayed System": "PC-3 prostate", "TGI": "> 100 µM"}
{"Molecule": "NS(=O)(=O)c1c(O)c2ccccc2oc1=O", "Assayed System": "PC-3 prostate", "TGI": "> 100 µM"}
{"Molecule": "C=CCN(c1cc(O)c2c(c(C)cn2S(=O)(=O)c2ccccc2)c1[N+](=O)[O-])S(C)(=O)=O", "Assayed System": "PC-3 prostate", "TGI": "> 100 µM"}
{"Molecule": "Clc1ccc(C(OCn2ccnc2)c2nc3ccccc3[nH]2)c(Cl)c1 (stereo unspecified)", "Assayed System": "PC-3 prostate", "TGI": "> 100 µM"}
{"Molecule": "OCc1ccc(N2CCc3ccc(F)cc3C2)cc1Cl", "Assayed System": "PC-3 prostate", "TGI": "27.4 µM"}
{"Molecule": "N#CC1=C(N)Oc2c(ccc3ccccc23)C1c1cc2ccccc2n2nnnc12 (stereo unspecified)", "Assayed System": "PC-3 prostate", "TGI": "> 100 µM"}
{"Molecule": "O=C1C[C@@H]2OCC=C3C[N+]4([O-])CC[C@]56c7ccccc7N1[C@H]5[C@H]2[C@H]3C[C@@H]64 (stereo partly specified)", "Assayed System": "PC-3 prostate", "TGI": "> 100 µM"}
{"Molecule": "O=c1c2sc3ccccc3sc=2c(=O)c2c(Cl)c(Cl)c(Cl)c(Cl)c12", "Assayed System": "PC-3 prostate", "TGI": "> 100 µM"}
{"Molecule": "N#C[Se]CCN1C(=O)c2ccccc2C1=O", "Assayed System": "PC-3 prostate", "TGI": "8.27 µM"}
{"Molecule": "Cc1cc2nnn(C3CCCCO3)c2cc1C (stereo unspecified)", "Assayed System": "PC-3 prostate", "TGI": "> 100 µM"}
{"Molecule": "CN(C)[C@@H]1C(=O)C(C(=O)NCc2nc3[nH]cnc(=S)c3[nH]2)=C(O)[C@@]2(O)C(=O)C3=C(O)c4c(O)cccc4[C@@](C)(O)[C@H]3C[C@@H]12", "Assayed System": "PC-3 prostate", "TGI": "> 100 µM"}
{"Molecule": "C#CCN(C(=O)C(F)(F)F)C(/C=C\\C(=O)OC)(C(=O)OCC)C(=O)OCC", "Assayed System": "PC-3 prostate", "TGI": "> 100 µM"}
{"Molecule": "COc1cc(CCN)c(OC)c(OC)c1", "Assayed System": "PC-3 prostate", "TGI": "> 100 µM"}
{"Molecule": "COc1ccc(OC/C(N)=N/NC(=O)c2ccncc2)cc1", "Assayed System": "PC-3 prostate", "TGI": "> 100 µM"}
